// data source = patent US20080194482A1

MEASUREMENT TARGET: human PAC1 (Homo sapiens, UniProt P41586)
Construct: expressed in transfected cells
Sequence (P41586 21-468): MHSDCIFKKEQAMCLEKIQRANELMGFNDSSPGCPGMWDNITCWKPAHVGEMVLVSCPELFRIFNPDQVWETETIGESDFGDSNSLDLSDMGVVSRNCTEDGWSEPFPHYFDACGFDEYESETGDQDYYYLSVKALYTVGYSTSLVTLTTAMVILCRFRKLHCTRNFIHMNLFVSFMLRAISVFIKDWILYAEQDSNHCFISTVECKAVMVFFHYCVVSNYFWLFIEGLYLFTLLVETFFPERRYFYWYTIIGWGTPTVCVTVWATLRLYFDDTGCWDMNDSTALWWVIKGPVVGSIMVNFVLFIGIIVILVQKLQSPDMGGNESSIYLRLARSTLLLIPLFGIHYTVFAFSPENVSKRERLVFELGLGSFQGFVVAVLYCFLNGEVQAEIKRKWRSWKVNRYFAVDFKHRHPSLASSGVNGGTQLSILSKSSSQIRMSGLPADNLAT
ASSAY COMMENT: Filter binding assay, 125I-labeled PACAP-27 tracer, PAC1 membranes
SETTINGS: read-out: Human PAC1 Receptor Binding (IC50; nM)
Square brackets hold non-standard residues; d marks the D form. Ends that are not written are not given here. * marks the point of attachment. hArg = N=C(N)NCCCC[C@H](N)C(=O)O; Hexanoyl = CCCCCC(=O)*; Aib = CC(C)(N)C(=O)O
VALUE TYPE: IC50

SUBSTANCE: Hexanoyl-HSDAVFTDNYT[hArg]LR[Aib]QVAA[Aib]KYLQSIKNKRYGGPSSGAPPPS [Agonist P343]
RESULT: > 25000 nM
